Attribute: concentration at 2 h
- Method: Ocular exposure after eye drop administration
- Type: in vivo
- Assay context: cornea; mouse; bilateral topical instillation of 0.1% formulation QDX1; 2 hr; read-out: Concentration (nM) Cornea
Response body: numeric value in nM, unit text excluded.

Take a look at these entries with their results.
>>> recorded_measurement("COc1cc(Nc2nc(Nc3ccc(OC4CCNCC4)cc3)ncc2C)ccc1Cl")
69900
>>> recorded_measurement("Cc1cnc(Nc2ccc(OCCN3CCCC3)cc2)nc1Nc1cccc2c1OCO2")
7870
>>> recorded_measurement("COc1cc(Nc2nc(Nc3ccc(N4CCNCC4)cc3)ncc2C)ccc1Cl")
103000
>>> recorded_measurement("Cc1cnc(Nc2ccc(N3CCN(C)CC3)cc2)nc1Nc1ccc(Cl)c2[nH]ccc12")
45000

Request: If you can, please state the reported concentration at 2 h value of COc1cc(Nc2nc(Nc3ccc(OCCN4CCCC4)cc3)ncc2C)ccc1Cl .
Result: 8840

###

- Test target: recombinant JAK2 (Homo sapiens, UniProt O60674)
- Construct: purchased Upstate Cell Signaling Solutions
- Sequence (O60674 808-1132 limits assumed): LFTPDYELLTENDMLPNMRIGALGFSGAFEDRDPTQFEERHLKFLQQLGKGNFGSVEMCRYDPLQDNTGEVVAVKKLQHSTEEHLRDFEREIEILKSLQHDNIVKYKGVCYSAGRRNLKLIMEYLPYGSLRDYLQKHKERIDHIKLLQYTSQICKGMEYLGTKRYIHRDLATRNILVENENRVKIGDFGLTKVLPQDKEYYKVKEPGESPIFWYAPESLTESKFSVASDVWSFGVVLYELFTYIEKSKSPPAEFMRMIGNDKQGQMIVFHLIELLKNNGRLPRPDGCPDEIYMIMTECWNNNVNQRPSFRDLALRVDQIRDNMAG
- Method: IC50 value determinations for Jak2 kinase, luminescence-based kinase assay (Kinase-Glo)
- Type: biochemical
- Assay context: Table 1
Counter-ions that a name gives are not always drawn.
Attribute: pIC50
Worth noting: pIC50 values are minus log10 of concentrations stated in mol/L.

Take a look at these entries with their results.
>>> recorded_measurement("O=S(=O)(NCCN1CCCC1)c1ccc(Nc2nccc(Nc3ccc(O)cc3)n2)cc1")
5.01
>>> recorded_measurement("Cc1cc(C)cc(Nc2nc(Nc3ccc(OC4CCNCC4)cc3)ncc2C)c1 [hydrochloride]")
7.43
>>> recorded_measurement("COc1cc(Nc2nc(Nc3ccc(N4CCNCC4)cc3)ncc2C)ccc1Cl [drawing 348]")
8.21
>>> recorded_measurement("COc1cccc(Nc2nc(Nc3ccc(OCCN4CCCC4)cc3)ncc2C)c1 [drawing 301, Hydrochloride]")
7.28
>>> recorded_measurement("Cc1cnc(Nc2ccc(-n3cccn3)cc2)nc1Nc1cccc(C(C)(C)C)c1")
6.82
>>> recorded_measurement("O=S(=O)(NCCN1CCCC1)c1ccc(Nc2nccc(Nc3cccc(O)c3)n2)cc1 [trifluoroacetate]")
5.44
>>> recorded_measurement("Cc1cnc(Nc2ccc(N3CCN(C)CC3)cc2)nc1Nc1cc(C)c(Cl)c(C)c1 [drawing 361, Hydrochloride]")
7.42

Request: If you can, please state the reported pIC50 value of COc1cc(Nc2nc(Nc3ccc(-n4cccn4)cc3)ncc2C)ccc1Cl [trifluoroacetate] .
Result: 7.45

###

Attribute: IC50
- Test target: recombinant JAK2 (Homo sapiens)
- Construct: purchased Upstate Cell Signaling Solutions
- Method: IC50 value determinations for Jak2 kinase, luminescence-based kinase assay (Kinase-Glo)
- Assay type: biochemical
- Assay context: Table 1
Structures can show the parent of a compound that is named as a salt.

>>> recorded_measurement("Cc1cc(Nc2nc(Nc3ccc(OCCN4CCCC4)cc3)ncc2C)ccc1Cl [Hydrochloride]")
"0.0124 µM"
>>> recorded_measurement("Cc1cnc(Nc2cccc(N3CCNCC3)c2)nc1Nc1cccc(S(=O)(=O)NC(C)(C)C)c1 [Hydrochloride]")
"0.018 µM"
>>> recorded_measurement("Cc1cnc(Nc2ccc(OC3CCNCC3)cc2)nc1Nc1cccc(C(=O)N2CCCC2)c1")
"0.113 µM"

Request: If you can, please state the reported IC50 value of Cc1cnc(Nc2ccc(N3CCN(C)CC3)cc2)nc1Nc1cccc(S(=O)(=O)N2C(C)CCC2C)c1 (stereo not drawn) [Hydrochloride] .
Result: 0.0188 µM

Request: If you can, please state the reported IC50 value of Cc1cnc(Nc2ccc(OCCN3CCCC3)cc2)nc1Nc1cccc(N(C)C)c1 .
Result: 0.0197 µM

Request: If you can, please state the reported IC50 value of Cc1cnc(Nc2ccc(CN3CCOCC3)cc2)nc1Nc1cccc(S(=O)(=O)NC(C)(C)C)c1 .
Result: 0.0125 µM

Request: If you can, please state the reported IC50 value of COc1cc(Nc2nc(Nc3ccc(Cn4cccn4)cc3)ncc2C)ccc1Cl .
Result: 0.0189 µM

Request: If you can, please state the reported IC50 value of Cc1cnc(Nc2ccc(CN3CCNCC3)cc2)nc1Nc1cccc2[nH]ccc12 .
Result: 0.0101 µM

Request: If you can, please state the reported IC50 value of CC(=O)N1CCN(c2ccc(Nc3ncc(C)c(Nc4cccc(S(=O)(=O)NC(C)(C)C)c4)n3)cc2C(F)(F)F)CC1 .
Result: 0.0357 µM

###

- Test target: recombinant JAK2 (Homo sapiens, UniProt O60674)
- Construct: purchased Upstate Cell Signaling Solutions
- Method: IC50 value determinations for Jak2 kinase, luminescence-based kinase assay (Kinase-Glo)
- Type: biochemical
- Assay context: Table 1
Counter-ions that a name gives are not always drawn.
Attribute: pIC50
Worth noting: pIC50 values are minus log10 of concentrations stated in mol/L.

Take a look at these entries with their results.
>>> recorded_measurement("Cc1cnc(Nc2ccc(OCCN3CCCC3)cc2)nc1Nc1ccc(C)c2[nH]ccc12 [Hydrochloride]")
8.16
>>> recorded_measurement("Cc1cnc(Nc2ccc(OCCN3CCCC3)cc2)nc1Nc1ccc(C(F)(F)F)cc1 [hydrochloride]")
7.40
>>> recorded_measurement("COc1cc(Nc2nc(Nc3ccc(S(=O)(=O)C4CCNCC4)cc3)ncc2C)ccc1Cl")
7.89
>>> recorded_measurement("COc1cc(Nc2ncc(C)c(Nc3cccc4c3OCO4)n2)ccc1OCCN1CCCC1")
8.03
>>> recorded_measurement("Cc1cnc(Nc2ccc(N3CCN(C)CC3)cc2)nc1Nc1cccc(S(=O)(=O)N2CCCC2)c1 [Hydrochloride]")
7.77

Request: If you can, please state the reported pIC50 value of Cc1cnc(Nc2ccc(OCCN3CCCC3)cc2)nc1Nc1ccccc1 .
Result: 7.78

Request: If you can, please state the reported pIC50 value of Cc1cnc(Nc2ccc(N3CCN(C)CC3)cc2)nc1Nc1cccc(C2CCN(CCO)CC2)c1 .
Result: 8.07

Request: If you can, please state the reported pIC50 value of Cc1cnc(Nc2ccc(N3CCN(C)CC3)cc2)nc1Nc1cccc(C(F)(F)F)c1C [hydrochloride] .
Result: 7.06

Request: If you can, please state the reported pIC50 value of Cc1cnc(Nc2ccc(N3CCN(C)CC3)cc2)nc1Nc1cccc(S(=O)(=O)N2CCOCC2)c1 .
Result: 7.68

Request: If you can, please state the reported pIC50 value of Cc1cnc(Nc2ccc(Cn3cccn3)cc2)nc1Nc1cccc(S(=O)(=O)NC(C)(C)C)c1 .
Result: 7.73

###

- Test target: recombinant JAK2 (Homo sapiens, UniProt O60674)
- Construct: purchased Upstate Cell Signaling Solutions
- Method: IC50 value determinations for Jak2 kinase, luminescence-based kinase assay (Kinase-Glo)
- Assay type: biochemical
- Assay context: Table 1
Counter-ions that a name gives are not always drawn.
Readout label: pIC50
Worth noting: pIC50 values are minus log10 of concentrations stated in mol/L.

>>> recorded_measurement("Cc1cnc(Nc2ccc(N3CCN(C)CC3)cc2)nc1Nc1cccc(S(=O)(=O)N2CCCCC2)c1 [Hydrochloride]")
7.61
>>> recorded_measurement("Cc1cnc(Nc2ccc(OCCN3CCCC3)cc2)nc1Nc1cccc(OC(F)(F)F)c1")
7.68
>>> recorded_measurement("Cc1cnc(Nc2ccc(N3CCN(C)CC3)cc2)nc1Nc1cccc(C(=O)NC(C)(C)C)c1")
6.05

Turning now to a further record.
Request: If you can, please state the reported pIC50 value of Cc1cnc(Nc2ccc(N3CCN(C)CC3)cc2)nc1Nc1cccc(S(=O)(=O)N2CCCCC2C)c1 (stereo not shown) [Hydrochloride] .
Result: 7.47

###

- Test target: recombinant JAK2 (Homo sapiens)
- Construct: purchased Upstate Cell Signaling Solutions
- Method: IC50 value determinations for Jak2 kinase, luminescence-based kinase assay (Kinase-Glo)
- Type: biochemical
- Assay context: Table 1
Counter-ions that a name gives are not always drawn.
Param label: returns fulfilled when IC50 < 50 nM, returns not fulfilled otherwise, including exact equality.

Before answering, review these 3 worked examples.
>>> class_label("Cc1cnc(Nc2ccc(OCCN3CCCC3)cc2)nc1Nc1cccc(C(C)(C)C)c1 [Hydrochloride]")
"fulfilled"
>>> class_label("COc1ccc(Nc2ccnc(Nc3ccc(OCCN4CCCC4)cc3)n2)cc1 [trifluoroacetate]")
"not fulfilled"
>>> class_label("Cc1cnc(Nc2ccc(N3CCN(C)CC3)cc2)nc1Nc1cccc(S(N)(=O)=O)c1")
"fulfilled"

From here, focus on the item given below.
Request: Say whether its IC50 is strictly beneath 50 nM. Entry: COc1cc(Nc2nc(Nc3ccc(OC4CCNCC4)cc3)ncc2C)cc(OC)c1 [trifluoroacetate]
Result: not fulfilled

###

Attribute: log10 IC50
- Test target: recombinant JAK2 (Homo sapiens, UniProt O60674)
- Construct: purchased Upstate Cell Signaling Solutions
- Method: IC50 value determinations for Jak2 kinase, luminescence-based kinase assay (Kinase-Glo)
- Assay type: biochemical
- Assay context: Table 1
Counter-ions that a name gives are not always drawn.
Parameter value (number): base-10 log of IC50 in nM.

Take a look at these entries with their results.
>>> recorded_measurement("Cc1cnc(Nc2ccc(OCCN3CCCC3)cc2)nc1Nc1cccc(Cl)c1")
1.32
>>> recorded_measurement("Cc1cnc(Nc2ccc(OCCN3CCCC3)cc2)nc1Nc1ccc(C#N)c(Cl)c1 [Hydrochloride]")
1.83
>>> recorded_measurement("COc1ccc(Nc2ccnc(Nc3ccc(S(=O)(=O)NCCN4CCCC4)cc3)n2)cc1 [trifluoroacetate]")
4.03
>>> recorded_measurement("COc1cc(Nc2nc(Nc3ccc(N4CCOCC4)cc3)ncc2C)ccc1Cl")
2.11
>>> recorded_measurement("Cc1cnc(Nc2ccc(C(=O)N3CCOCC3)cc2)nc1Nc1cccc(S(=O)(=O)NC(C)(C)C)c1")
1.52

Request: If you can, please state the reported log10 IC50 value of Cc1cnc(Nc2ccc(N3CCN(C)CC3)cc2)nc1Nc1cccc(S(=O)(=O)NC(C)C)c1 .
Result: 1.07

Request: If you can, please state the reported log10 IC50 value of Cc1cc(Nc2nc(Nc3ccc(OC4CCNCC4)cc3)ncc2C)ccc1Cl .
Result: 0.92

Request: If you can, please state the reported log10 IC50 value of CC(=O)Nc1cccc(Nc2nc(Nc3ccc(OC4CCNCC4)cc3)ncc2C)c1 .
Result: 2.14

Request: If you can, please state the reported log10 IC50 value of Cc1cnc(Nc2ccc(N3CCN(C)CC3)cc2)nc1Nc1cccc(-n2cccc2)c1 .
Result: 1.53
